molecular target: LK35.2-hPD-L1 cells / PE-labeled PD-1-Ig (Homo sapiens, UniProt Q9NZQ7); construct: expressed in transfected cells; host or cells: LK35.2 mouse B cell line; experiment: LK35.2-hPD-L1 cell binding high-content screening assay; type: cell-based; conditions: cluster symbol; cell line of CBA not given (LK35.2-hPD-L1 or 293T-hPD-L1); read-out: CBA IC50 cluster
Sequence (Q9NZQ7 19-290): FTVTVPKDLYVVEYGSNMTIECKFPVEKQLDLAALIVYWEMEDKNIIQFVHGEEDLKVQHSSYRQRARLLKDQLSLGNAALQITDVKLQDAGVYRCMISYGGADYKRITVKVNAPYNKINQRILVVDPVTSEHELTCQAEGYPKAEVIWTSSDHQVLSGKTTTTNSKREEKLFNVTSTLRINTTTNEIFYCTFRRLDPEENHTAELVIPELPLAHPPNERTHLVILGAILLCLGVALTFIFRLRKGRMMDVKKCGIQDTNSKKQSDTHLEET
Positions of bridges follow the written chain, without caps; N, C: chain ends. Non-standard residues stand in square brackets, D forms with d. Residues, ends and D or L forms follow the SMILES beside them. Bta = N[C@@H](Cc1csc2ccccc12)C(=O)O; Hyp = O=C(O)[C@@H]1C[C@@H](O)CN1; NMeNle = CCCC[C@H](NC)C(=O)O; NMeA = CN[C@@H](C)C(=O)O; Dap = NC[C@H](N)C(=O)O
MEASURED_QUANTITY: IC50

[Q] Using the record for CCCC[C@H]1C(=O)N(C)[C@@H](CCCC)C(=O)N[C@@H](CN)C(=O)N[C@H](C(=O)NCC(N)=O)CSCC(=O)N[C@@H](Cc2ccc(O)cc2)C(=O)N(C)[C@@H](C)C(=O)N[C@@H](CC(N)=O)C(=O)N2CCC[C@H]2C(=O)N[C@@H](CN)C(=O)N[C@@H](CC(C)C)C(=O)N2C[C@H](O)C[C@H]2C(=O)N[C@@H](Cc2c[nH]c3ccccc23)C(=O)N[C@@H](CO)C(=O)N[C@@H](Cc2csc3ccccc23)C(=O)N1C [Example 1161] ({CH2CO}-Y[NMeA]NP[Dap]L[Hyp]WS[Bta][NMeNle][NMeNle][Dap]CG-NH2; thioether N-14) , report its IC50.
[A] 0.158 to 4.71 nM

src = patent US9850283B2
